Biological target: HIV-2 Protease MRT-25 (Human immunodeficiency virus type 2, UniProt P04584, cells depend on it, form not given)
Assay: yeast growth rescue assay, Protease from infected individual
Settings: MRT-25 Protease; yeast

>  <compound>
Cc1cccc(C)c1OCC(=O)N[C@@H](Cc1ccccc1)[C@@H](O)C[C@H](Cc1ccccc1)NC(=O)[C@H](C(C)C)N1CCCNC1=O [LPV, Lopinavir]

>  <units-text>
µM

>  <IC50>
19.9

$$$$
>  <compound>
CC(C)(C)NC(=O)[C@@H]1C[C@@H]2CCCC[C@@H]2CN1C[C@@H](O)[C@H](Cc1ccccc1)NC(=O)[C@H](CC(N)=O)NC(=O)c1ccc2ccccc2n1 [SQV, Saquinavir]

>  <units-text>
µM

>  <IC50>
48.5

$$$$

* * *

Target: HIV-2ROD Protease (wild type) (Human immunodeficiency virus type 2 subtype A)
Construct: initiator Met (added ATG start codon) (N)
Assay: yeast growth rescue assay, HIV-2ROD Protease expressed in BY4741 yeast
Details: ROD Protease; […], 48 h
pIC50: −log10 of the molar value.
outcome-measure: pIC50

>  <substance-smiles>
CC(C)(C)NC(=O)[C@@H]1C[C@@H]2CCCC[C@@H]2CN1C[C@@H](O)[C@H](Cc1ccccc1)NC(=O)[C@H](CC(N)=O)NC(=O)c1ccc2ccccc2n1

>  <outcome-measure>
pIC50

>  <reading>
3.82

$$$$
>  <substance-smiles>
Cc1cccc(C)c1OCC(=O)N[C@@H](Cc1ccccc1)[C@@H](O)C[C@H](Cc1ccccc1)NC(=O)[C@H](C(C)C)N1CCCNC1=O

>  <outcome-measure>
pIC50

>  <reading>
4.78

$$$$

* * *

Recorded pIC50 values for a group of molecules are listed next.
Biological target: HIV-2 Protease MRT-22 (Human immunodeficiency virus type 2, UniProt P04584, cells depend on it, form not given)
Experiment: yeast growth rescue assay, Protease from infected individual
Details: MRT-22 Protease; yeast
pIC50: −log10 of the molar value.

>  <substance-smiles>
CC(C)(C)NC(=O)[C@@H]1C[C@@H]2CCCC[C@@H]2CN1C[C@@H](O)[C@H](Cc1ccccc1)NC(=O)[C@H](CC(N)=O)NC(=O)c1ccc2ccccc2n1

>  <pIC50>
3.98

$$$$
>  <substance-smiles>
Cc1cccc(C)c1OCC(=O)N[C@@H](Cc1ccccc1)[C@@H](O)C[C@H](Cc1ccccc1)NC(=O)[C@H](C(C)C)N1CCCNC1=O

>  <pIC50>
4.82

$$$$

* * *

Biological target: HIV-2ROD Protease L90M (Human immunodeficiency virus type 2 subtype A, UniProt P04584, L603M)
Sequence (P04584 514-612 L603M): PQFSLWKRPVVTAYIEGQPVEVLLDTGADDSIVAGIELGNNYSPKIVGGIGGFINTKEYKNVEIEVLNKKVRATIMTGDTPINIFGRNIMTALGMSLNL
Assay: cell-based
pIC50: −log10 of the molar value.
outcome-measure: pIC50

>  <substance-smiles>
CC(C)(C)NC(=O)[C@@H]1C[C@@H]2CCCC[C@@H]2CN1C[C@@H](O)[C@H](Cc1ccccc1)NC(=O)[C@H](CC(N)=O)NC(=O)c1ccc2ccccc2n1

>  <reading>
3.26

$$$$
>  <substance-smiles>
Cc1cccc(C)c1OCC(=O)N[C@@H](Cc1ccccc1)[C@@H](O)C[C@H](Cc1ccccc1)NC(=O)[C@H](C(C)C)N1CCCNC1=O

>  <reading>
4.90

$$$$

* * *

Target: HIV-2 Protease MRT-8 (Human immunodeficiency virus 2, UniProt P04584, L603M, cells depend on it, form not given)
Sequence (P04584 514-612 L603M): as above
Experiment: yeast growth rescue assay, Protease from infected individual
Conditions: MRT-8 Protease; yeast
# Lookup of reported IC50 keyed by entry
outcome-measure: IC50 (µM)

>  <substance-smiles>
Cc1cccc(C)c1OCC(=O)N[C@@H](Cc1ccccc1)[C@@H](O)C[C@H](Cc1ccccc1)NC(=O)[C@H](C(C)C)N1CCCNC1=O

>  <outcome-measure>
IC50

>  <reading>
12.5

$$$$
>  <substance-smiles>
CC(C)(C)NC(=O)[C@@H]1C[C@@H]2CCCC[C@@H]2CN1C[C@@H](O)[C@H](Cc1ccccc1)NC(=O)[C@H](CC(N)=O)NC(=O)c1ccc2ccccc2n1

>  <outcome-measure>
IC50

>  <reading>
554

$$$$

* * *

Target: HIV-2 Protease MRT-1 (Human immunodeficiency virus type 2, UniProt P04584, cells depend on it, form not given)
Sequence (P04584 514-612 limits assumed, change not shown): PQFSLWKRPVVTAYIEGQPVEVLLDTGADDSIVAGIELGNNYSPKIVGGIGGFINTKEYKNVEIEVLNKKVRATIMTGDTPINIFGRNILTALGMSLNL
Experiment: yeast growth rescue assay, Protease from infected individual
Details: MRT-1 Protease; yeast
pIC50: −log10 of the molar value.

>  <substance-smiles>
CC(C)(C)NC(=O)[C@@H]1C[C@@H]2CCCC[C@@H]2CN1C[C@@H](O)[C@H](Cc1ccccc1)NC(=O)[C@H](CC(N)=O)NC(=O)c1ccc2ccccc2n1

>  <pIC50>
3.70

$$$$
>  <substance-smiles>
Cc1cccc(C)c1OCC(=O)N[C@@H](Cc1ccccc1)[C@@H](O)C[C@H](Cc1ccccc1)NC(=O)[C@H](C(C)C)N1CCCNC1=O

>  <pIC50>
4.32

$$$$

* * *

Molecular target: HIV-2ROD Protease L99F (Human immunodeficiency virus type 2 subtype A, UniProt P04584, L612F)
Construct: contains a Phe codon at position 99 of the HIV-2 Protease, followed by a stop codon; initiator Met (start codon of primer Fwd) (N)
Sequence (P04584 514-612 L612F): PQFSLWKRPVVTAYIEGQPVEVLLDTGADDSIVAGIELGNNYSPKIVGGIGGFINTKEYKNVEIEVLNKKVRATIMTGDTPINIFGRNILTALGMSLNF
Assay: cell-based
pIC50: −log10 of the molar value.

>  <substance-smiles>
Cc1cccc(C)c1OCC(=O)N[C@@H](Cc1ccccc1)[C@@H](O)C[C@H](Cc1ccccc1)NC(=O)[C@H](C(C)C)N1CCCNC1=O

>  <pIC50>
4.95

$$$$
>  <substance-smiles>
CC(C)(C)NC(=O)[C@@H]1C[C@@H]2CCCC[C@@H]2CN1C[C@@H](O)[C@H](Cc1ccccc1)NC(=O)[C@H](CC(N)=O)NC(=O)c1ccc2ccccc2n1

>  <pIC50>
3.83

$$$$
